Target: NAD-dependent protein deacetylase sirtuin-1 (Homo sapiens)
Sequence (Q96EB6 whole entry): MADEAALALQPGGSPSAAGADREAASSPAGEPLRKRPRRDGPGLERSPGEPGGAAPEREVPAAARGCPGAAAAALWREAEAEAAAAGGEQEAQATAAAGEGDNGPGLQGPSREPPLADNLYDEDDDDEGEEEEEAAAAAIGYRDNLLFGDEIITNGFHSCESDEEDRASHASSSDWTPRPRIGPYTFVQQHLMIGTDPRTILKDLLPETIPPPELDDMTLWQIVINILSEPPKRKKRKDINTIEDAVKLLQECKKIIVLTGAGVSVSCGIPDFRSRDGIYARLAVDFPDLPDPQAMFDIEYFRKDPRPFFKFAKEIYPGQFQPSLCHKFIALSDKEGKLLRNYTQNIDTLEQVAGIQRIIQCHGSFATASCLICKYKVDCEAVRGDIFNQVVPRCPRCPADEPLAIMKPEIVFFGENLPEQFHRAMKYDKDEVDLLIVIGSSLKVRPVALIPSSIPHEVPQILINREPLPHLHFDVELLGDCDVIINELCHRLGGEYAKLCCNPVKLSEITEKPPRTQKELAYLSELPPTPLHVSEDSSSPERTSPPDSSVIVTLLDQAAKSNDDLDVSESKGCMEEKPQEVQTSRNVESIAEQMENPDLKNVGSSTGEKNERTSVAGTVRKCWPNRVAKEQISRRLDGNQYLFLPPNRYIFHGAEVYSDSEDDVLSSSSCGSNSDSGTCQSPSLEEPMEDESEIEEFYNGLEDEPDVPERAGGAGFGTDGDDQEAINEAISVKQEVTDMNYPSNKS
Test: Inhibition of human recombinant SIRT1 assessed as reduction in NAD+-dependent deacetylase activity using Arg-His-Lys-Lys(epsilon-acetyl)-AMC substrate and NAD+ by fluorescence based assay
The entries below come with measured IC50 values attached.

# example entries with known answers
Record smiles: O=C(Nc1ccc(C(=O)O)c(O)c1)c1ccc(NC(=O)c2ccco2)cc1
Observation type: IC50
Test value: 599 µM
--
Record smiles: O=C(Nc1ccc(O)c(C(=O)O)c1)c1ccc(NC(=O)c2ccco2)cc1
Observation type: IC50
Test value: 783 µM

Please look at the following compound next.
## Input I am curious: what IC50 value has been reported for `O=C(Nc1ccc(O)cc1C(=O)O)c1ccc(N2C(=O)c3ccccc3C2=O)cc1` ?
## Output 424 µM

----------
Molecular target: NAD-dependent protein deacylase sirtuin-6 (Homo sapiens, UniProt Q8N6T7)
Sequence (Q8N6T7 whole entry): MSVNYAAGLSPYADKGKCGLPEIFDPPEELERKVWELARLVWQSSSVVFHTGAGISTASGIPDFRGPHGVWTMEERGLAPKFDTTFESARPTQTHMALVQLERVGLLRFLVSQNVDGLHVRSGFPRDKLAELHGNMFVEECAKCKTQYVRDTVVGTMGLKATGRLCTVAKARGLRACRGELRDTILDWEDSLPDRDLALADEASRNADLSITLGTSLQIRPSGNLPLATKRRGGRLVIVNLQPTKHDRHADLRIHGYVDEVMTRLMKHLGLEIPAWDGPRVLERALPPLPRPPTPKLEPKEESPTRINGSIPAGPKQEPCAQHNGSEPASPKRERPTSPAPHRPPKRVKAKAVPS
Assay: Inhibition of human recombinant SIRT6 assessed as reduction in NAD+-dependent deacetylase activity at 200 uM using Arg-His-Lys-Lys(epsilon-acetyl)-AMC substrate and NAD+ by fluorescence based assay
Observation type: inhibition

# example entries with known answers
Molecule: CCC(=O)Nc1ccc(C(=O)Nc2ccc(C(=O)O)c(O)c2)cc1
Tested system: NAD-dependent protein deacylase sirtuin-6 (Homo sapiens, UniProt Q8N6T7)
Test value: 70%
//
Molecule: O=C(Nc1ccc(O)c(C(=O)O)c1)c1cccc(N2C(=O)CCS2(=O)=O)c1
Tested system: NAD-dependent protein deacylase sirtuin-6 (Homo sapiens, UniProt Q8N6T7)
Test value: 54%
//
Molecule: O=C(O)c1cccc(NC(=O)c2cccc(N3C(=O)CCS3(=O)=O)c2)c1
Tested system: NAD-dependent protein deacylase sirtuin-6 (Homo sapiens, UniProt Q8N6T7)
Test value: 5%
//
Molecule: O=C(Nc1ccc(C(=O)O)c(O)c1)c1ccc(N2C(=O)c3ccccc3C2=O)cc1
Tested system: NAD-dependent protein deacylase sirtuin-6 (Homo sapiens, UniProt Q8N6T7)
Test value: 17%

## Input I am curious: what inhibition value has been reported for `O=C(O)c1cc(NC(=O)c2cccc(N3C(=O)CCC3=O)c2)cc(C(=O)O)c1` ?
## Output 68%

## Input I am curious: what inhibition value has been reported for `O=C(Nc1ccc(O)cc1C(=O)O)c1ccc(N2C(=O)c3ccccc3C2=O)cc1` ?
## Output 100%

## Input I am curious: what inhibition value has been reported for `O=C(Nc1ccc(C(=O)O)c(O)c1)c1ccc(N2C(=O)CCS2(=O)=O)cc1` ?
## Output 100%

## Input I am curious: what inhibition value has been reported for `Cc1c(NC(=O)c2cccc(NC(=O)c3ccco3)c2)cccc1C(=O)O` ?
## Output 18%

----------
Target: NAD-dependent protein deacylase sirtuin-6 (Homo sapiens)
Assay: Inhibition of SIRT6 in human BxPC3 cells assessed as reduction in TNFalpha production at 100 uM incubated for 18 hrs by ELISA method
Format: cell-based
Observation type: inhibition (%)
Field format: number, assumed %, no unit text.

# example entries with known answers
Record smiles: O=C(Nc1ccc(O)c(C(=O)O)c1)c1ccc(NC(=O)c2ccco2)cc1
Tested system: NAD-dependent protein deacylase sirtuin-6 (Homo sapiens)
inhibition [%]: 78
//
Record smiles: O=C(Nc1ccc(O)cc1C(=O)O)c1ccc(N2C(=O)c3ccccc3C2=O)cc1
Tested system: NAD-dependent protein deacylase sirtuin-6 (Homo sapiens)
inhibition [%]: 13
//
Record smiles: O=C(Nc1ccc(O)c(C(=O)O)c1)c1cccc(NC(=O)c2ccco2)c1
Tested system: NAD-dependent protein deacylase sirtuin-6 (Homo sapiens)
inhibition [%]: 52

Please look at the following compound next.
## Input Provide value of inhibition for this record tested with NAD-dependent protein deacylase sirtuin-6 (Homo sapiens): `O=C(Nc1ccc(C(=O)O)c(O)c1)c1ccc(NC(=O)c2ccco2)cc1`
## Output 80

----------
Experiment: Fraction unbound in mouse plasma at 10 ug/ml by rapid equilibrium dialysis
Assay type: ADME, cell-free
Observation type: fraction unbound at 10 ug/ml
Write the number on its own, no unit after it.

## Input I am curious: what fraction unbound at 10 ug/ml value has been reported for `O=C(Nc1ccc(O)c(C(=O)O)c1)c1ccc(NC(=O)c2ccco2)cc1` ?
## Output 0.046

----------
Assay: Intrinsic aqueous solubility in PBS at pH 7.4
Assay type: physicochemical
Observation type: solubility (µg/mL)
Field format: number, assumed µg/mL, no unit text.

Record smiles: O=C(Nc1ccc(O)cc1C(=O)O)c1ccc(N2C(=O)c3ccccc3C2=O)cc1
Units text: µg/mL
Test value: 70

## Input I am curious: what solubility value has been reported for `O=C(Nc1ccc(O)c(C(=O)O)c1)c1ccc(NC(=O)c2ccco2)cc1` ?
## Output 1400

----------
Assay: Fraction unbound in mouse plasma at 1 ug/ml by rapid equilibrium dialysis
Format: ADME, cell-free
Observation type: fraction unbound at 1 ug/ml
Write the number on its own, no unit after it.

## Input I am curious: what fraction unbound at 1 ug/ml value has been reported for `O=C(Nc1ccc(O)c(C(=O)O)c1)c1ccc(NC(=O)c2ccco2)cc1` ?
## Output 0.029

----------
Biological target: NAD-dependent protein deacylase sirtuin-6 (Homo sapiens, UniProt Q8N6T7)
Test: Inhibition of human recombinant SIRT6 assessed as reduction in NAD+-dependent deacetylase activity at 200 uM using Arg-His-Lys-Lys(epsilon-acetyl)-AMC substrate and NAD+ by fluorescence based assay
Calls of active or inactive are those of the source. The calls are words filed in the database; no cut-off is given here.
Observation type: inhibition

# example entries with known answers
Molecule: O=C(Nc1ccc(C(=O)O)c(O)c1)c1cccc(NC(=O)c2ccco2)c1
Tested system: NAD-dependent protein deacylase sirtuin-6 (Homo sapiens, UniProt Q8N6T7)
inhibition: 62%
--
Molecule: CC(=O)Nc1ccc(NS(=O)(=O)c2ccc(O)c(C(=O)O)c2)cc1
Tested system: NAD-dependent protein deacylase sirtuin-6 (Homo sapiens, UniProt Q8N6T7)
inhibition: inactive
--
Molecule: Cc1ccc(C(=O)O)cc1NC(=O)c1cccc(NC(=O)c2ccco2)c1
Tested system: NAD-dependent protein deacylase sirtuin-6 (Homo sapiens, UniProt Q8N6T7)
inhibition: 4%
--
Molecule: O=C(Nc1ccc(O)c(C(=O)O)c1)c1ccc(NC(=O)C2CC2)cc1
Tested system: NAD-dependent protein deacylase sirtuin-6 (Homo sapiens, UniProt Q8N6T7)
inhibition: 50%
--
Molecule: O=C(Nc1ccc(C(=O)O)c(O)c1)c1ccc(NC(=O)c2ccco2)cc1
Tested system: NAD-dependent protein deacylase sirtuin-6 (Homo sapiens, UniProt Q8N6T7)
inhibition: 100%
--
Molecule: CCC(CC)C(=O)Nc1cccc(C(=O)Nc2cccc(C(=O)O)c2)c1
Tested system: NAD-dependent protein deacylase sirtuin-6 (Homo sapiens, UniProt Q8N6T7)
inhibition: 54%
--
Molecule: O=C(O)c1cccc(NC(=O)c2cccc(NC(=O)c3cccs3)c2)c1
Tested system: NAD-dependent protein deacylase sirtuin-6 (Homo sapiens, UniProt Q8N6T7)
inhibition: 39%
--
Molecule: O=C(Nc1ccc(O)c(C(=O)O)c1)c1ccc(NC(=O)c2ccco2)cc1
Tested system: NAD-dependent protein deacylase sirtuin-6 (Homo sapiens, UniProt Q8N6T7)
inhibition: 100%

Please look at the following molecule next.
## Input I am curious: what inhibition value has been reported for `O=C(Nc1ccc(O)c(C(=O)O)c1)c1ccc(N2C(=O)CCS2(=O)=O)cc1` ?
## Output 89%

----------
Molecular target: NAD-dependent protein deacylase sirtuin-6 (Homo sapiens, UniProt Q8N6T7)
Assay: Inhibition of human recombinant SIRT6 assessed as reduction in NAD+-dependent deacetylase activity at 200 uM using Arg-His-Lys-Lys(epsilon-acetyl)-AMC substrate and NAD+ by fluorescence based assay
Calls of active or inactive are those of the source. The calls are words filed in the database; no cut-off is given here.
Observation type: inhibition

# example entries with known answers
Compound: O=C(O)c1cccc(NC(=O)c2cccc(NC(=O)C3CCCO3)c2)c1 (stereo not given)
inhibition: inactive
--
Compound: O=C(Cc1cccs1)Nc1cccc(C(=O)Nc2cccc(C(=O)O)c2)c1
inhibition: inactive
--
Compound: O=C(Nc1ccc(C(=O)O)c(O)c1)c1cccc(N2C(=O)CCS2(=O)=O)c1
inhibition: 44%
--
Compound: Cc1cc(O)c(C(=O)O)cc1S(=O)(=O)Nc1ccc(NC(=O)NCC2CCCO2)cc1 (stereo not given)
inhibition: 17%

## Input Provide value of inhibition for this record tested with NAD-dependent protein deacylase sirtuin-6 (Homo sapiens, UniProt Q8N6T7): `CC(=O)Nc1cccc(NS(=O)(=O)c2cc(C(=O)O)c(O)cc2C)c1`
## Output inactive
